# Tested on: HEPG2 hepatic cancer cells
# assay-overview: MTT cell viability assay, HEPG2 hepatic cancer cells
# Format: cell-based
# condition-info: Homo sapiens, 72 hours, 1.0-20 μM, calculated with Compusyn software
measurement-label: IC50 (µM)
Please state the figure in µM; there is no need to write the unit.

Provide only the value of recorded IC50 for `CC(C)OC(=O)[C@H](C)N[P@](=O)(OC[C@H]1O[C@@H](n2cc(F)c(=O)[nH]c2=O)C[C@@H]1O)Oc1ccccc1`
13.3
